Origin of values: ChEMBL document CHEMBL5506036

- Assay Details: Kinetic aqueous solubility of compound in PBS at pH 7.4 measured after 24 hrs by HPLC-UV analysis
- Type: physicochemical
- Condition Label: read-out: Kinetic_solubility
Result Type: solubility kinetic at 24 h (µM)

{"Molecule": "FC(F)(F)c1cccc(Cl)c1CSc1nnc(-c2cnccn2)o1", "Result Value": 26.7}
{"Molecule": "O=C([O-])Cc1ccccc1Nc1c(Cl)cccc1Cl.[Na+] [DICLOFENAC SODIUM]", "Result Value": 205}
{"Molecule": "Clc1cccc(Cl)c1CSc1nnc(-c2cnccn2)s1", "Result Value": 1.22}
{"Molecule": "CC/C(=C(/CC)c1ccc(O)cc1)c1ccc(O)cc1 [DIETHYLSTILBESTROL]", "Result Value": 14.4}
